# measurementTarget: Corticotropin-releasing factor receptor 1 (Homo sapiens, UniProt P34998)
# Sequence (P34998 whole entry): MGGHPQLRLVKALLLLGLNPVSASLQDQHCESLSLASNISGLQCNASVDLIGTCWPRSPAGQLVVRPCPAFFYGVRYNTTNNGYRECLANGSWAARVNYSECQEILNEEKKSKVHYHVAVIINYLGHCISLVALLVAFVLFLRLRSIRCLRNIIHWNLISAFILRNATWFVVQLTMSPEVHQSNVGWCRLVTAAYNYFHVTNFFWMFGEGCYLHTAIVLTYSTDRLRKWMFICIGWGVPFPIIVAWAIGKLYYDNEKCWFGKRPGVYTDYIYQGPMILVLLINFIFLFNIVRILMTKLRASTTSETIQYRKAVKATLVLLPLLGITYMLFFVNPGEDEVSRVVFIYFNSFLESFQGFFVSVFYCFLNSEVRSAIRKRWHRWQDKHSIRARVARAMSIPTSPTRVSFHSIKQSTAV
# protocolText: Displacement of [125I]CRF from human recombinant CRF1 receptor expressed in CHO cell membrane
pIC50: −log10 of the molar value.
valueKind: pIC50

compound | pIC50
CCC(CC)n1cc2c3c(nc(C)cc31)N(c1ccc(OC(F)(F)F)cc1C)CC2 | 7.10
CCCC(CCC)N1CCC2CN(c3ccc(Cl)cc3Cl)c3nc(C)nc1c32 (stereo not drawn) | 7.50
CCC(COC)n1cc2c3c(nc(C)cc31)N(c1ccc(OC)cc1C)CC2 (stereo not drawn) | 6.80
CCC(COC)n1cc2c3c(nc(C)cc31)N(c1ccc(C#N)cc1C)CC2 (stereo not drawn) | 7.40
CCC(CC)n1cc2c3c(nc(C)cc31)N(c1ccc(OC)cc1C)CC2 | 7.90

a. CCCC(CCC)n1cc2c3c(nc(C)cc31)N(c1ccc(C(F)(F)F)cc1C(F)(F)F)CC2
b. CCC(CC)n1cc2c3c(nc(C)cc31)N(c1ccc(C#N)cc1C)CC2
Min pIC50? a | b Kindly state the label of the option you pick.
a

---

# protocolText: Volume of distribution at steady state in Sprague-Dawley rat at 1 mg/kg, po and 0.4 mg/kg, iv
# Format: ADME, organism-based
# statedConditions: in vivo, read-out: Vdss
valueKind: Vd (L/kg)

inputSmiles | Vd (L/kg)
CCCC(CCC)n1cc2c3c(nc(C)cc31)N(c1ccc(C#N)cc1C)CC2 | 17

a. CCCC(CCC)n1cc2c3c(nc(C)cc31)N(c1ccc(OC)c(F)c1)CC2
b. CCCC(CCC)n1cc2c3c(nc(C)cc31)N(c1ccc(C(F)(F)F)cc1C(F)(F)F)CC2
c. CCC(CC)n1cc2c3c(nc(C)cc31)N(c1ccc(C(F)(F)F)cc1C(F)(F)F)CC2
I would appreciate it if you could sort these 3 molecules by Vd, starting from the smallest number. The reply should contain the labels ordered as requested.
b, c, a
(b: 2.5 L/kg, c: 6.8 L/kg, a: 24 L/kg)

---

# protocolText: Half life in Sprague-Dawley rat at 1 mg/kg, po and 0.4 mg/kg, iv
# Assay type: ADME, organism-based
# statedConditions: in vivo
valueKind: half-life (h)

inputSmiles | resultUnit | half-life
CCCC(CCC)n1cc2c3c(nc(C)cc31)N(c1ccc(C#N)cc1C)CC2 | h | 6.7
CCCC(CCC)n1cc2c3c(nc(C)cc31)N(c1ccc(OC)c(F)c1)CC2 | h | 8.6

A. CCC(CC)n1cc2c3c(nc(C)cc31)N(c1ccc(C(F)(F)F)cc1C(F)(F)F)CC2
B. CCCC(CCC)n1cc2c3c(nc(C)cc31)N(c1ccc(C(F)(F)F)cc1C(F)(F)F)CC2
Which record would sort first by descending half-life, A or B ? Kindly state the label of the option you pick.
A
(A: 7.6 h, B: 5.3 h)
